PROCEDURE_SUMMARY: Solubility in PBS
Assay type: physicochemical
PROPERTY_MEASURED: Solubility (µM)
The answer is to be given in µM; state only the numeric part.

Check out these entries, answers already filled in.
CC(=O)N1CCC[C@]12CC=CCCCC1(CCCC=CCCCCOC(=O)N3CC[C@@](C(=O)N[C@@H](Cc4ccsc4)C(=O)N[C@@H](Cc4csc5ccccc45)C(=O)N[C@@H](Cc4c[nH]cn4)C(=O)N[C@H](C)C(N)=O)(C3)NC(=O)[C@H](CC(N)=O)NC(=O)[C@H](Cc3ccccc3)NC(=O)[C@H](C)NC(=O)[C@H](C)NC(=O)[C@H](CC(=O)O)NC(=O)[C@H](CC(=O)O)NC1=O)NC(=O)[C@H](CC(C)(C)C)NC(=O)[C@H](CC(=O)O)NC2=O (some centres unmarked) [I-833] | 50
CC(=O)N1CCC[C@]12CC=CCCCC1(CCCC=CCCCOC(=O)N3CC[C@@](C(=O)N[C@@H](Cc4ccsc4)C(=O)N[C@@H](Cc4csc5ccccc45)C(=O)N[C@@H](CCC(N)=O)C(N)=O)(C3)NC(=O)[C@H](CC(N)=O)NC(=O)[C@H](Cc3ccccc3)NC(=O)[C@H](C)NC(=O)[C@H](C)NC(=O)[C@H](CC(=O)O)NC(=O)[C@H](CC(=O)O)NC1=O)NC(=O)[C@H](CC(C)C)NC(=O)[C@H](CC(=O)O)NC2=O (some centres unmarked) [I-688] | 46
CC(=O)N1CCC[C@]12CC=CCCCC1(CCCC=CCCCOC(=O)N3CC[C@@](C(=O)N[C@@H](Cc4ccccc4)C(=O)N[C@@H](Cc4csc5ccccc45)C(=O)N[C@@H](CO)C(N)=O)(C3)NC(=O)[C@H]([C@@H](C)O)NC(=O)[C@H](Cc3ccccc3)NC(=O)[C@H](C)NC(=O)[C@H](CC(C)C)NC(=O)[C@H]([C@@H](C)O)NC(=O)[C@H](CC(=O)O)NC1=O)NC(=O)[C@H](CC(C)(C)C)NC(=O)[C@H](CC(=O)O)NC2=O (some centres unmarked) [I-1264] | 10
CCN(CC(=O)O)C[C@@H]1NC(=O)[C@H](CC(=O)O)NC(=O)C2(CCCC=CCCCOC(=O)N3CC[C@@](C(=O)N[C@@H](Cc4ccsc4)C(=O)N[C@@H](Cc4csc5ccccc45)C(=O)N[C@@H](CCC(N)=O)C(N)=O)(C3)NC(=O)[C@H](CO)NC(=O)[C@H](Cc3ccccc3)NC(=O)[C@H](C)NC(=O)[C@H](C)NC1=O)CCCC=CC[C@]1(CCCN1C(C)=O)C(=O)N[C@@H](CC(=O)O)C(=O)N[C@@H](CC(C)(C)C)C(=O)N2 (some centres unmarked) [I-967] | 45

Note: attention shifts to another entry.
Give a short answer stating reported Solubility for CC(=O)N1CCC[C@]12CC=CCCCC1(CCCC=CCCCCCC[C@@](C)(C(=O)N[C@@H](Cc3ccsc3)C(=O)N[C@@H](Cc3csc4ccccc34)C(=O)N[C@@H](CCC(N)=O)C(N)=O)NC(=O)[C@H](CC(N)=O)NC(=O)[C@H](Cc3ccccc3)NC(=O)[C@H](C)NC(=O)[C@H](C)NC(=O)[C@H](CC(=O)O)NC(=O)[C@H](CC(=O)O)NC1=O)NC(=O)[C@H](CC(C)C)NC(=O)[C@H](CC(=O)O)NC2=O (some centres unmarked) [I-680] .
47
